conditions: PAMPA, pH 7.4
QUANTITY MEASURED: Permeability, replicate 3 (Log10[10^−6 cm/s])

a. C=C[C@H]1C[N@@]2CC[C@H]1C[C@@H]2[C@@H](O)c1ccnc2ccc(OC)cc12 [Quinidine, reference compound]
b. CCCCCCOC(=O)N=C(NCCC[C@@H]1NC(=O)[C@H](C(C)C)N(C)C(=O)[C@@H](Cc2ccccc2)NC(=O)[C@H](CC(=O)OC)NC(=O)CNC1=O)NC(=O)OCCCCCC [Cil.-P, c(f*VR(Hoc)2 GD)]
# input Compare reported Permeability, replicate 3 values for a and b . Which is lower? // output: label of the selected item
# output b
(b: −6.5 Log10[10^−6 cm/s], a: −4.5 Log10[10^−6 cm/s])

====

assay: Caco-2 permeability study (Examples 1-4); details: Caco-2
QUANTITY MEASURED: efflux ratio
Number only, no unit.

# input I have this compound here, CCCCCCOC(=O)N=C(NCCC[C@@H]1NC(=O)[C@@H](C(C)C)N(C)C(=O)[C@H](C)N(C)C(=O)[C@H](C)NC(=O)[C@H](CC(=O)OC)NC(=O)CNC1=O)NC(=O)OCCCCCC [peptide 29P, c(*vR(Hoc)2GD(OMe)A*A)] , and I need its recorded efflux ratio.
# output 13

====

assay: in vitro; conditions: human, Caco-2, pH 7.4, Papp (AB), replicate 1
QUANTITY MEASURED: Papp A→B at 90 min, 10 μM (×10⁻⁶ cm/s)

a. CC(C)NCC(O)COc1cccc2ccccc12 (centres unmarked) [Propranolol]
b. C[C@H]1O[C@@H](O[C@H]2[C@@H](O)C[C@H](O[C@H]3[C@@H](O)C[C@H](O[C@H]4CC[C@@]5(C)[C@H](CC[C@@H]6[C@@H]5C[C@@H](O)[C@]5(C)[C@@H](C7=CC(=O)OC7)CC[C@]65O)C4)O[C@@H]3C)O[C@@H]2C)C[C@H](O)[C@@H]1O [Digoxin]
# input Compare reported Papp A→B at 90 min, 10 μM values for a and b . Which is lower? // output: label of the selected item
# output b
(b: 0.4 ×10⁻⁶ cm/s, a: 14.9 ×10⁻⁶ cm/s)

====

conditions: PAMPA, pH 7.4
Where a SMILES comes first, the peptide text is derived from it. [ ]: non-standard residue; d: D form. Arg(ω,ω'-(C6H13OCO)2) = CCCCCCOC(=O)N=C(NCCC[C@H](N)C(=O)O)NC(=O)OCCCCCC
QUANTITY MEASURED: Permeability, replicate 3 (Log10[10^−6 cm/s])
Unit Log10[10^−6 cm/s] implied. Number only.

# input I have this molecule here, CCCCCCOC(=O)N=C(NCCC[C@@H]1NC(=O)[C@H](Cc2ccccc2)NC(=O)[C@@H]2CCCN2C(=O)[C@@H]2CCCN2C(=O)[C@H](CC(C)C)NC(=O)[C@H](C)NC(=O)[C@H](CC(C)C)NC(=O)[C@H](CC(=O)OC)NC(=O)CNC1=O)NC(=O)OCCCCCC [AR372] (cyclo(ALPPF[Arg(ω,ω'-(C6H13OCO)2)]GD(OMe)L)) , and I need its recorded Permeability, replicate 3.
# output −5.7

====

conditions: pH 7.4, LogD, pH 7.4 (single replicate)
Where a SMILES comes first, the peptide text is derived from it. [ ]: non-standard residue; d: D form. Arg(ω,ω'-(C6H13OCO)2) = CCCCCCOC(=O)N=C(NCCC[C@H](N)C(=O)O)NC(=O)OCCCCCC
QUANTITY MEASURED: logD
Number only, no unit.

# input I have this compound here, CCCCCCOC(=O)N=C(NCCC[C@@H]1NC(=O)[C@H](Cc2ccccc2)NC(=O)[C@@H]2CCCN2C(=O)[C@@H]2CCCN2C(=O)[C@H](CC(C)C)NC(=O)[C@H](C)NC(=O)[C@H](CC(C)C)NC(=O)[C@H](CC(=O)OC)NC(=O)CNC1=O)NC(=O)OCCCCCC [AR372] (cyclo(ALPPF[Arg(ω,ω'-(C6H13OCO)2)]GD(OMe)L)) , and I need its recorded logD.
# output 4.8
